test.method.notes: Antiadrenergic activity: shift of isoprenalin dose-activity curves in guinea-pigs (pA2)
Type: in vivo, guinea-pig
condition.label: against heart rate-increasing activity of isoprenalin; averages from 2 to 3 tests
result.type: pA2 heart rate
// print number alone

These recorded examples may help you get a feel for the data.
> print(dat)
                                   compound  result
1  Cc1cc(C2=NNC(=O)CC2)ccc1OCCNCC(O)COc1ccc(COCCOC(C)C)cc1 (centres unmarked) [Substance N]    8.34
2  Cc1cc(C2=NNC(=O)CC2)ccc1OCCNCC(O)COc1ccc(CCOCC2CC2)cc1 (centres unmarked) [Substance M]    8.20
3  O=C1CCC(c2ccc3c(c2)ncn3CCNCC(O)COc2ccc(CCOCC3CC3)cc2)=NN1 (centres unmarked) [Substance B]    6.95
4  Cc1cc(C2=NNC(=O)CC2)ccc1OCCCNCC(O)COc1ccc(CCOCC2CC2)cc1 (centres unmarked) [Substance O]    7.70
5  CC(C)COCCc1ccc(OCC(O)CNC(C)(C)Cn2cnc3cc(C4=NNC(=O)CC4)ccc32)cc1 (centres unmarked) [Substance I]    7.89
6  O=C1CCC(c2ccc(OCCNCC(O)COc3ccc(CCOCC4CC4)cc3)cc2)=NN1 (centres unmarked) [Substance C]    7.22

Next, consider the following compound.
# pA2 heart rate (compound: CC(C)OCCOCc1ccc(OCC(O)CNCCCOc2ccc(C3=NNC(=O)CC3)cc2Cl)cc1 (centres unmarked) [Substance K] ) is 7.52

---

The reader will find reported pA2 inotropia values listed item by item below.
test.method.notes: Antiadrenergic activity: shift of isoprenalin dose-activity curves in guinea-pigs (pA2)
Assay type: in vivo, guinea-pig
condition.label: against inotropic activity of isoprenalin (LV-dP/dtmax); averages from 2 to 3 tests
// print number alone

These recorded examples may help you get a feel for the data.
> print(dat)
                                   compound  result
1  O=C1CCC(c2ccc3c(c2)ncn3CCNCC(O)COc2ccc(CCOCC3CCC3)cc2)=NN1 (stereo not drawn)    6.30
2  O=C1CCC(c2ccc(OCCNCC(O)COc3ccc(CCOCC4CCC4)cc3)cc2)=NN1 (stereo not drawn)    6.19

Next, consider the following compound.
# pA2 inotropia (compound: Cc1cc(C2=NNC(=O)CC2)ccc1OCCNCC(O)COc1ccc(CCOCC2CC2)cc1 (stereo not drawn) ) is 7.05

---

measurement.target: β1 adreno receptor (rat hearts) (Rattus norvegicus, UniProt P18090)
Sequence (P18090 whole entry): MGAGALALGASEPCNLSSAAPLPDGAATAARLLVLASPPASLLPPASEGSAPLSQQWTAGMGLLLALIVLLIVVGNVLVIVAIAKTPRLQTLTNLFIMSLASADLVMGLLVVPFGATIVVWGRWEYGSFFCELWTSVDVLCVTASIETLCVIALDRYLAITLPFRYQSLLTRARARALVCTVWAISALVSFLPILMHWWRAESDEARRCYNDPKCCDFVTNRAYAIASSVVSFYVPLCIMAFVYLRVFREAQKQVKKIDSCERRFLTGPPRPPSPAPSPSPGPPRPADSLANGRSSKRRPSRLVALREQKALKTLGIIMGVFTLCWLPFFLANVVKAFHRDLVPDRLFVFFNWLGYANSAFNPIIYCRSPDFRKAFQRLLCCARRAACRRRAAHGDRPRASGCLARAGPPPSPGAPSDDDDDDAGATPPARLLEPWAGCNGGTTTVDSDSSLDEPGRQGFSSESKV
result.type: pIC50
Please keep in mind that pIC50 is minus log10 of the molar concentration; only the number is needed.

> print(dat)
                                   compound  result
1  CC(C)OCCOCc1ccc(OCC(O)CNCCOc2ccc(C3=NNC(=O)CC3)cc2)cc1 (centres unmarked) [Substance F]    7.62
2  O=c1ccc(-c2ccc(OCCNCC(O)COc3ccc(CCOCC4CC4)cc3)cc2)n[nH]1 (centres unmarked) [Substance D]    7.66
3  CC(C)OCCOCc1ccc(OCC(O)CNCCCOc2ccc(C3=NNC(=O)CC3)cc2Cl)cc1 (centres unmarked) [Substance K]    8.00
4  CC(C)COCCc1ccc(OCC(O)CNC(C)(C)Cn2cnc3cc(C4=NNC(=O)CC4)ccc32)cc1 (centres unmarked) [Substance I]    7.92

Next, consider the following compound.
# pIC50 (compound: CC(C)OCCOCc1ccc(OCC(O)CNCCOc2ccc(C3=NNC(=O)CC3)cc2Cl)cc1 (centres unmarked) [Substance L] ) is 8.12

---

test.method.notes: Antiadrenergic activity: shift of isoprenalin dose-activity curves in guinea-pigs (pA2)
Assay type: in vivo, guinea-pig
condition.label: against inotropic activity of isoprenalin (LV-dP/dtmax); averages from 2 to 3 tests
The reader will find reported pA2 inotropia values listed item by item below.
// print number alone

# pA2 inotropia (compound: Cc1cc(C2=NNC(=O)CC2)ccc1OCCNCC(O)COc1ccc(COCCOC(C)C)cc1 (stereo not shown) [Substance N] ) is 7.34

# pA2 inotropia (compound: O=C1CCC(c2ccc(OCCNCC(O)COc3ccc(CCOCC4CC4)cc3)cc2)=NN1 (stereo not shown) [Substance C] ) is 6.76

# pA2 inotropia (compound: CC(C)COCCc1ccc(OCC(O)CNCCCn2cnc3cc(C4=NNC(=O)CC4)ccc32)cc1 (stereo not shown) [Substance H] ) is 8.28

# pA2 inotropia (compound: CC(C)OCCOCc1ccc(OCC(O)CNCCOc2ccc(C3=NNC(=O)CC3)cc2)cc1 (stereo not shown) [Substance F] ) is 7.14

---

test.method.notes: Antiadrenergic activity: shift of isoprenalin dose-activity curves in guinea-pigs (pA2)
Format: in vivo, guinea-pig
condition.label: against inotropic activity of isoprenalin (LV-dP/dtmax); averages from 2 to 3 tests
Description: Cardiotonic effect with antiadrenergic activity Guinea-pigs (Dunkin-Hartley-Pirbright, male, 450-600 g) were anaesthetised with hexobarbital-sodium (150 mg/kg i.p.). […] The left ventricular pressure (LVP) was measured with a Millar PR-249 catheter-tip manometer inserted into the left ventricle through the left carotid artery. […] The arterial blood pressure was recorded by a cannula in the right carotid artery using a Bell & Howell pressure recorder. The heart rate was also measured. […]
result.type: pA2 inotropia
// print number alone

> print(dat)
                                   compound  result
1  O=c1ccc(-c2ccc(OCCNCC(O)COc3ccc(CCOCC4CC4)cc3)cc2)n[nH]1 (centres unmarked)    6.67
2  CC(C)OCCOCc1ccc(OCC(O)CNCCCOc2ccc(C3=NNC(=O)CC3)cc2Cl)cc1 (centres unmarked)    6.56
3  O=C1CCC(c2ccc3c(c2)ncn3CCNCC(O)COc2ccc(CCOCC3CC3)cc2)=NN1 (centres unmarked)    6.83

# pA2 inotropia (compound: Cc1cc(C2=NNC(=O)CC2)ccc1OCCCNCC(O)COc1ccc(CCOCC2CCC2)cc1 (centres unmarked) ) is 5.31

# pA2 inotropia (compound: CC(C)OCCOCc1ccc(OCC(O)CNCCOc2ccc(C3=NNC(=O)CC3)cc2Cl)cc1 (centres unmarked) ) is 6.23

---

test.method.notes: Antiadrenergic activity: shift of isoprenalin dose-activity curves in guinea-pigs (pA2)
Assay type: in vivo, guinea-pig
condition.label: against heart rate-increasing activity of isoprenalin; averages from 2 to 3 tests
The reader will find reported pA2 heart rate values listed item by item below.
// print number alone

These recorded examples may help you get a feel for the data.
> print(dat)
                                   molecule  result
1  O=c1ccc(-c2ccc(OCCNCC(O)COc3ccc(CCOCC4CC4)cc3)cc2)n[nH]1 (stereo not shown) [Substance D]    7.24
2  O=C1CCC(c2ccc(OCCNCC(O)COc3ccc(CCOCC4CCC4)cc3)cc2)=NN1 (stereo not shown) [Substance E]    7.23
3  CC(C)OCCOCc1ccc(OCC(O)CNCCOc2ccc(-c3ccc(=O)[nH]n3)cc2)cc1 (stereo not shown) [Substance G]    6.38
4  O=C1CCC(c2ccc3c(c2)ncn3CCNCC(O)COc2ccc(CCOCC3CCC3)cc2)=NN1 (stereo not shown) [Substance A]    8.20
5  CC(C)OCCOCc1ccc(OCC(O)CNCCOc2ccc(C3=NNC(=O)CC3)cc2)cc1 (stereo not shown) [Substance F]    6.96
6  Cc1cc(C2=NNC(=O)CC2)ccc1OCCCNCC(O)COc1ccc(CCOCC2CCC2)cc1 (stereo not shown) [Substance P]    6.45

Next, consider the following molecule.
# pA2 heart rate (molecule: CC(C)OCCOCc1ccc(OCC(O)CNCCOc2ccc(C3=NNC(=O)CC3)cc2Cl)cc1 (stereo not shown) [Substance L] ) is 6.77

---

measurement.target: β2 adreno receptor (rat lungs) (Rattus norvegicus)
Sequence (P10608 whole entry): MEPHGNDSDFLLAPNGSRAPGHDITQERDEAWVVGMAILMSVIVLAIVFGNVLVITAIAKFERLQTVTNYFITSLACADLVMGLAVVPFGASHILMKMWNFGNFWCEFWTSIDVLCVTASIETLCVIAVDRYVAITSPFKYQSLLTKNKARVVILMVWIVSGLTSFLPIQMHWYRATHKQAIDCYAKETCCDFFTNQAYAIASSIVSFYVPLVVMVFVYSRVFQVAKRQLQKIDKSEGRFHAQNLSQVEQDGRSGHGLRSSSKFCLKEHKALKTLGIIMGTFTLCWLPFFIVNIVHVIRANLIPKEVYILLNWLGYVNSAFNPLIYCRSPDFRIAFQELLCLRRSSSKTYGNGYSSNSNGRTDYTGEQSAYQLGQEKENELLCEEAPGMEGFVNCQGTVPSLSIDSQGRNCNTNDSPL
Criterion: IC50 strictly under 600 nM. Met: T. Not met: F.

> print(dat)
                                   molecule  label
1  Cc1cc(C2=NNC(=O)CC2)ccc1OCCNCC(O)COc1ccc(COCCOC(C)C)cc1 (stereo not drawn)      T
2  O=C1CCC(c2ccc(OCCNCC(O)COc3ccc(CCOCC4CC4)cc3)cc2)=NN1 (stereo not drawn)      F

Hello, is IC50 of the following molecule strictly smaller than 600 nM? CC(C)OCCOCc1ccc(OCC(O)CNCCOc2ccc(-c3ccc(=O)[nH]n3)cc2)cc1 (stereo not drawn)
F

Hello, is IC50 of the following molecule strictly smaller than 600 nM? Cc1cc(C2=NNC(=O)CC2)ccc1OCCCNCC(O)COc1ccc(CCOCC2CC2)cc1 (stereo not drawn)
T

Hello, is IC50 of the following molecule strictly smaller than 600 nM? CC(C)OCCOCc1ccc(OCC(O)CNCCCOc2ccc(C3=NNC(=O)CC3)cc2Cl)cc1 (stereo not drawn)
T

Hello, is IC50 of the following molecule strictly smaller than 600 nM? CC(C)COCCc1ccc(OCC(O)CNC(C)(C)Cn2cnc3cc(C4=NNC(=O)CC4)ccc32)cc1 (stereo not drawn)
T

Hello, is IC50 of the following molecule strictly smaller than 600 nM? O=C1CCC(c2ccc(OCCNCC(O)COc3ccc(CCOCC4CCC4)cc3)cc2)=NN1 (stereo not drawn)
F

Hello, is IC50 of the following molecule strictly smaller than 600 nM? Cc1cc(C2=NNC(=O)CC2)ccc1OCCCNCC(O)COc1ccc(CCOCC2CCC2)cc1 (stereo not drawn)
T

The origin of these recorded values is patent US5135932A.
